Biological target: T1, TNF-α (UniProt P01375 77-233, limits assumed)
T1 construct: also called tumor necrosis factor; ligand
Assay: competition ELISA: sample vs plate-bound TNFRI190 for TNF-α, from IC50, relative to wild-type TNFRI171
Would you kindly list Relative Affinity for Ligand (%) for each of these binders?
The response must be a number in % with no trailing unit.

Query: Quick one: Relative Affinity for Ligand (%) for TNFRI171-S51 (receptor, Met-TNFRI171 superlead mutant made in E. coli) MDSVCPQGKYIHPQNNSICCTKCHKGTYLYNDCPGPGQDTDCRECESGSFTAIPNFLPGCLSCSKCRKEMGQVEISSCTVDRDTVCGCRKNQYRHYWSENLFQCFNCSLCLNGTVHLSCQEKQNTVCTCHAGFFLRENECVSCSNCKKSLECTKLCLPQIQNVKGTEDSGTT ?
Response: 537

Query: // same read-out, input: TNFRI171-S34 (receptor, Met-TNFRI171 superlead mutant made in E. coli) MDSVCPQGKYIHPQNNSICCTKCHKGTYLYNDCPGPGQDTDCRECESGSFTAIENFLPACLSCSKCRKEMGQVEISSCTVDRDTVCGCRKNQYRHYWSENLFQCFNCSLCLNGTVHLSCQEKQNTVCTCHAGFFLRENECVSCSNCKKSLECTKLCLPQIQNVKGTEDSGTT
Response: 700

Query: Now try TNFRI171-S45 (receptor, Met-TNFRI171 superlead mutant made in E. coli) MDSVCPQGKYIHPQNNSICCTKCHKGTYLYNDCPGPGQDTDCRECESGSFTAHENFLPACLSCSKCRKEMGQVEISSCTVDRDTVCGCRKNQYRHYWSENLFQCFNCSLCLNGTVHLSCQEKQNTVCTCHAGFFLRENECVSCSNCKKSLECTKLCLPQIENVKGTENSGTT .
Response: 679
